Where do these numbers come from? They come from patent US20220017572A1.

Target: thrombin (Homo sapiens, UniProt P00734)
Assay: Thrombin inhibition, fluorimetric enzyme assay
Type: biochemical
Conditions: 55 μM inhibitor, 36.5° C.; read-out: Residual Activity (%) Thrombin
Residues, ends and D or L forms follow the SMILES beside them.
OBSERVATION_TYPE: remaining activity at 55 µM (%)
Number only, in %; omit the unit.

As a guide, the following entries are already answered.
COMPOUND	RECORDED_MEASUREMENT
CCCCCCCCCCCCCCCCNC(=O)[C@H](CCCCN)NC(=O)CNC(=O)CNC(=O)CNC(=O)CNC(=O)[C@H](CCCCN)NC(=O)CCCCCCCCCCCCCCC [C16KG4KC16] (HELM PEPTIDE1{[CCCCCCCCCCCCCCCC(=O)[*:2]].K.G.G.G.G.K.[CCCCCCCCCCCCCCCCN[*:1]]}$$$$V2.0)	59
CCCCCCCCCCCCCCCCNC(=O)[C@H](CCCCN)NC(=O)CNC(=O)CNC(=O)CNC(=O)[C@H](CCCCN)NC(=O)CCCCCCCCCCCCCCC [C16-KGGGK-C16, C15H31CO-KGGGK-NH—C16H33] (HELM PEPTIDE1{[CCCCCCCCCCCCCCCC(=O)[*:2]].K.G.G.G.K.[CCCCCCCCCCCCCCCCN[*:1]]}$$$$V2.0)	64
CCCCCCCCCCCCCCCCNC(=O)[C@H](CCCCN)NC(=O)CNC(=O)CNC(=O)[C@H](CCCCN)NC(=O)CCCCCCCCCCCCCCC [C16-KGGK-C16, C15H31CO-KGGK-NH—C16H33] (HELM PEPTIDE1{[CCCCCCCCCCCCCCCC(=O)[*:2]].K.G.G.K.[CCCCCCCCCCCCCCCCN[*:1]]}$$$$V2.0)	46
CCCCCCCCCCCCCCCCNC(=O)[C@H](CCCCN)NC(=O)[C@H](CCCCN)NC(=O)CCCCCCCCCCCCCCC [C16-KK-C16, C15H31CO-KK-NH—C16H33]	48

Considering CCCCCCCCCCCCCCCCNC(=O)[C@H](CCCCN)NC(=O)CNC(=O)[C@H](CCCCN)NC(=O)CCCCCCCCCCCCCCC [C16-KGK-C16, C15H31CO-KGK-NH—C16H33] , its remaining activity at 55 µM with thrombin (Homo sapiens, UniProt P00734) was recorded as 61
